Hey, just so you know, these numbers are from patent US10874743B2.

# MEASUREMENT_PROTOCOL: Pharmacokinetics in CD-1 mice (plasma concentrations, PK parameters)
# Type: in vivo
# EXPERIMENTAL_PARAMETERS: CD-1, mouse, plasma, sc, 30 mg/kg, mouse (CD1) sc 30 mg/kg; individual M07-M09; read-out: Tmax
PROPERTY_LABEL: Tmax
Give the value; after it, write the unit.

Please report the measured Tmax for NC(=O)c1nn(-c2ccc(C(=O)NCCOCCOCCNc3cccc4c3C(=O)N(C3CCC(=O)NC3=O)C4=O)cc2)cc1NC(=O)c1coc(-c2ccnc(NCC(F)(F)F)c2)n1 (stereo not shown) [I-127]
2 h

* * *

# MEASUREMENT_PROTOCOL: Pharmacokinetics in CD-1 mice (plasma concentrations, PK parameters)
# Assay type: in vivo
# EXPERIMENTAL_PARAMETERS: CD-1, mouse, plasma, iv, 2 mg/kg, mouse (CD1) iv 2 mg/kg; Mean IV
PROPERTY_LABEL: clearance (mL/min/kg)
One number for each entry, in mL/min/kg.

Please report the measured clearance for NC(=O)c1nn(-c2ccc(C(=O)NCCOCCOCCNc3cccc4c3C(=O)N(C3CCC(=O)NC3=O)C4=O)cc2)cc1NC(=O)c1coc(-c2ccnc(NCC(F)(F)F)c2)n1 (stereo not shown)
84.9

* * *

# MEASUREMENT_PROTOCOL: Pharmacokinetics in Sprague Dawley rats (plasma and brain concentrations, PK parameters)
# Assay type: in vivo
# EXPERIMENTAL_PARAMETERS: Sprague Dawley, rat, plasma, iv, 3 mg/kg, Sprague Dawley rat, iv 3 mg/kg, Rat 1; read-out: AUCInf Rat 1
PROPERTY_LABEL: AUC(0-inf) (ng·h/mL)
Give bare numbers, in ng·h/mL.

Please report the measured AUC(0-inf) for O=C1CCC(N2C(=O)c3cccc(NCCOCCOCCNCc4ccc(-n5cc(NC(=O)c6coc(-c7ccnc(NCC8CC8)c7)n6)c(C(F)F)n5)cc4)c3C2=O)C(=O)N1 (stereo not shown)
1240

* * *

# MEASUREMENT_PROTOCOL: Pharmacokinetics in CD-1 mice (plasma concentrations, PK parameters)
# Assay type: in vivo
# EXPERIMENTAL_PARAMETERS: CD-1, mouse, plasma, po, 30 mg/kg, mouse (CD1) po 30 mg/kg; 2 h; Mean; read-out: Concentration
PROPERTY_LABEL: concentration at 2 h (ng/mL)
Answers are plain numbers, in ng/mL.

Please report the measured concentration at 2 h for O=C1CCC(N2C(=O)c3cccc(NCCOCCOCCNCc4ccc(-n5cc(NC(=O)c6coc(-c7ccnc(NCC8CC8)c7)n6)c(C(F)F)n5)cc4)c3C2=O)C(=O)N1 (stereo not shown)
127

* * *

# MEASUREMENT_PROTOCOL: Pharmacokinetics in CD-1 mice (plasma concentrations, PK parameters)
# Assay type: in vivo
# EXPERIMENTAL_PARAMETERS: CD-1, mouse, plasma, iv, 2 mg/kg, mouse (CD1) iv 2 mg/kg; 4 h; individual Mouse 1-3; read-out: Concentration
PROPERTY_LABEL: concentration at 4 h

// each listed compound needs a value for concentration at 4 h
1. O=C1CCC(N2C(=O)c3cccc(NCCOCCOCCNCc4ccc(-n5cc(NC(=O)c6coc(-c7ccnc(NCC8CC8)c7)n6)c(C(F)F)n5)cc4)c3C2=O)C(=O)N1 (centres unmarked) [I-210]
2. NC(=O)c1nn(-c2ccc(C(=O)NCCCCCNCCNc3cccc4c3C(=O)N(C3CCC(=O)NC3=O)C4=O)cc2)cc1NC(=O)c1coc(-c2ccnc(NCC(F)(F)F)c2)n1 (centres unmarked) [I-172]

32.5 ng/mL
9.04 ng/mL
